assay: Ames microplate format (MPF) assay, TA1535; conditions: Salmonella typhimurium, Salmonella typhimurium TA1535
quantity: fold induction at 90 min, 0.1 mM
Respond using a number only.

Task: Report fold induction at 90 min, 0.1 mM, nothing else, for this compound: C[C@H](O)CNC(=O)/C=C/c1ccccc1
Output: 0.7

---

test: Ames microplate format (MPF) assay, TA100; details: Salmonella typhimurium
quantity: fold induction at 90 min, 0.1 mM
Respond using a number only.

Task: Report fold induction at 90 min, 0.1 mM, nothing else, for this compound: C[C@H](O)CNC(=O)/C=C/c1ccccc1
Output: 0.8

---

assay: Neurotoxicity (TOX), rotarod test, mice; type: in vivo; details: mouse, in vivo, ip, rotarod, 0.25 h, 95% confidence interval in parentheses
quantity: TD50 at 0.25 h (mg/kg)
Give the value, in units of mg/kg, as a plain number.

Task: Report TD50 at 0.25 h, nothing else, for this compound: C[C@H](O)CNC(=O)/C=C/c1ccccc1 [KM-568]
Output: 148

---

experiment: Ames microplate format (MPF) assay, TA98; conditions: Salmonella typhimurium
quantity: fold induction at 90 min, 0.5 mM
Respond using a number only.

Task: Report fold induction at 90 min, 0.5 mM, nothing else, for this molecule: C[C@H](O)CNC(=O)/C=C/c1ccccc1 [KM-568]
Output: 0.7

---

test: Neurotoxicity (TOX), behavioral tests, rats; type: in vivo; settings: rat, in vivo, po, 1.0 h
quantity: TD50 at 1 h

Task: Report TD50 at 1 h, nothing else, for this compound: C[C@H](O)CNC(=O)/C=C/c1ccccc1
Output: > 500 mg/kg

---

Experiment: Ames microplate format (MPF) assay, TA1537
Conditions: Salmonella typhimurium
Description: The Ames microplate format (MPF) mutagenicity assay (Xenometrix, Allschwil, Switzerland) was used to test KM-568 mutagenicity. […] The test procedure provided by Xenometrix and described in detail elsewhere was followed. […] After the exposure, the number of wells containing bacteria was scored for yellow wells. […] The fold increase of revertants relative to the solvent control was determined by dividing the mean number of positive wells at each dose by the solvent control at baseline. […]
quantity: fold induction at 90 min, 15 µg/mL
Respond using a number only.

Task: Report fold induction at 90 min, 15 µg/mL, nothing else, for this compound: Nc1c2ccccc2nc2ccccc12 [9-AAc, 9-aminoacridine, reference compound]
Output: 48

---

experiment: Ames microplate format (MPF) assay, TA1537; conditions: Salmonella typhimurium
quantity: fold induction at 90 min, 0.1 mM
Respond using a number only.

Task: Report fold induction at 90 min, 0.1 mM, nothing else, for this compound: C[C@H](O)CNC(=O)/C=C/c1ccccc1 [KM-568]
Output: 1

---

experiment: Ames microplate format (MPF) assay, TA100; conditions: Salmonella typhimurium
quantity: fold induction at 90 min, 0.2 mM
Respond using a number only.

Task: Report fold induction at 90 min, 0.2 mM, nothing else, for this compound: C[C@H](O)CNC(=O)/C=C/c1ccccc1
Output: 0.7

---

experiment: Ames microplate format (MPF) assay, TA98; settings: Salmonella typhimurium
quantity: fold induction at 90 min, 0.2 mM
Respond using a number only.

Task: Report fold induction at 90 min, 0.2 mM, nothing else, for this compound: C[C@H](O)CNC(=O)/C=C/c1ccccc1 [KM-568]
Output: 0.9

---

assay: Ames microplate format (MPF) assay, TA100; conditions: Salmonella typhimurium
quantity: fold induction at 90 min, 0.5 mM
Respond using a number only.

Task: Report fold induction at 90 min, 0.5 mM, nothing else, for this molecule: C[C@H](O)CNC(=O)/C=C/c1ccccc1
Output: 1
